target-or-system: Transforming acidic coiled-coil-containing protein 3 (Homo sapiens)
assay-remarks: inhibition of ARNT PAS-B/TACC3 complex formation – biochemical, AlphaScreen, cherry-picked samples, confirmation (AID 651703);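 note: TACC3 partner is the GST-tagged E629A mutant dimer; hits lower the signal meaning they disrupt ARNT binding to TACC3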
condition-info: AlphaScreen His-ARNT PAS-B / GST-TACC3 binding, luminescence
observed-property: AC50

# return AC50 for each item in the list
1. c1ccc(-c2nn[nH]n2)nc1
2. Oc1cc(NCCN2CCOCC2)cc2cccnc12

### Response
5.22 µM
1.46 µM

// for each molecule below, give its AC50
1. Cc1ccc(C)c(NC(=O)CSc2n[nH]c(-c3ccccn3)n2)c1
2. Cc1cccc(Nc2nc(-c3ccccn3)cs2)n1
3. c1ccc(-c2nnc(-c3ccccn3)nc2Nc2nc3ccccc3s2)cc1
4. CS(=O)(=O)c1cccc(-c2nnc(NC(=O)c3ccc(S(=O)(=O)N4CCCC4)cc3)o2)c1

### Response
0.574 µM
6.95 µM
0.509 µM
22.5 µM

---

Please provide measured AC50 for the entries that follow.
target-or-system: UniProt:Q9Y6A5
assay-remarks: inhibition of ARNT PAS-B/TACC3 complex formation – biochemical, AlphaScreen, cherry-picked samples, confirmation (AID 651703);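 note: TACC3 partner is the GST-tagged E629A mutant dimer; hits lower the signal meaning they disrupt ARNT binding to TACC3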
condition-info: AlphaScreen His-ARNT PAS-B / GST-TACC3 binding, luminescence

Quick one: give me AC50 for each item below, same order please.
1. O=C(NCCCn1ccnc1)Nc1cccc(Cl)c1
2. Cc1ccc(C(=O)Nc2nc(-c3ccccn3)cs2)o1
3. c1ccc(N=Nc2ccc3cccccc2-3)cc1
4. CCCCC(=O)NC(c1cccc([N+](=O)[O-])c1)c1ccc2cccnc2c1O (configuration not stated)
5. Oc1ccc(CNC2Cc3ccccc3C2)c2cccnc12
6. O=C(CSc1ccc2nnc(-c3ccccn3)n2n1)Nc1ccccc1F
7. C#CCOCCOCCOCCNc1nc(N2CCN(C(=O)[C@H](CC(N)=O)n3cc([C@@H](N)CC(N)=O)nn3)CC2)nc(N2CCN(C(=O)[C@H](CC(N)=O)n3cc([C@@H](N)CC(N)=O)nn3)CC2)n1
8. O=[N+]([O-])c1ccc(O)c(-c2nn[nH]n2)c1

### Response
["9.64 µM", "2.07 µM", "1.68 µM", "4.22 µM", "0.63 µM", "28.6 µM", "47.1 µM", "14 µM"]

---

target-or-system: Transforming acidic coiled-coil-containing protein 3 (Homo sapiens) (UniProt Q9Y6A5)
assay-remarks: inhibition of ARNT PAS-B/TACC3 complex formation – biochemical, AlphaScreen, cherry-picked samples, confirmation (AID 651703);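 note: TACC3 partner is the GST-tagged E629A mutant dimer; hits lower the signal meaning they disrupt ARNT binding to TACC3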
condition-info: AlphaScreen His-ARNT PAS-B / GST-TACC3 binding, luminescence
Please respond with reported AC50 for every item in the list.

# count of solved cases: 10
compound="COc1cccc(C2c3[nH]c4ccccc4c3CCN2Cc2ncc[nH]2)c1 (stereo unspecified)" target_or_system="Transforming acidic coiled-coil-containing protein 3 (Homo sapiens) (UniProt Q9Y6A5)" result="38 µM"
compound=Cc1cccc(S(=O)(=O)N[C@H]2CC[C@@H](CCn3cc(-c4ccccn4)nn3)O[C@@H]2CO)c1 target_or_system="Transforming acidic coiled-coil-containing protein 3 (Homo sapiens) (UniProt Q9Y6A5)" result="24.3 µM"
compound="Cc1cc(NC(c2cccnc2)c2ccc3cccnc3c2O)no1 (stereo unspecified)" target_or_system="Transforming acidic coiled-coil-containing protein 3 (Homo sapiens) (UniProt Q9Y6A5)" result="1.02 µM"
compound=Cn1c(-c2ccccc2)cnc1Nc1nc(-c2ccccn2)nnc1-c1ccccc1 target_or_system="Transforming acidic coiled-coil-containing protein 3 (Homo sapiens) (UniProt Q9Y6A5)" result="2.26 µM"
compound=CCOc1cc(N2CCOCC2)c(OCC)cc1NC(=O)COc1cccc2cccnc12 target_or_system="Transforming acidic coiled-coil-containing protein 3 (Homo sapiens) (UniProt Q9Y6A5)" result="20.3 µM"
compound=Cn1nc(-c2ccccn2)nc2c(=O)n(C)c(=O)nc1-2 target_or_system="Transforming acidic coiled-coil-containing protein 3 (Homo sapiens) (UniProt Q9Y6A5)" result="< 0.5 µM"
compound=Cn1cccc1C(=O)Nc1nc(-c2ccccn2)cs1 target_or_system="Transforming acidic coiled-coil-containing protein 3 (Homo sapiens) (UniProt Q9Y6A5)" result="5.3 µM"
compound=Cc1ccc2nc(-c3ccccn3)c(NC3CCCC3)n2c1 target_or_system="Transforming acidic coiled-coil-containing protein 3 (Homo sapiens) (UniProt Q9Y6A5)" result="10.2 µM"
compound=CSCC[C@H](NC(=O)OC(C)(C)C)C(=O)N/N=C/c1cccc2cccnc12 target_or_system="Transforming acidic coiled-coil-containing protein 3 (Homo sapiens) (UniProt Q9Y6A5)" result="22.9 µM"
compound=Cc1ccc(C(=O)Nc2nc(-c3ccccn3)cs2)s1 target_or_system="Transforming acidic coiled-coil-containing protein 3 (Homo sapiens) (UniProt Q9Y6A5)" result="4.78 µM"

// each compound listed below needs its AC50
1. COc1cccc(C(=O)Oc2c(CN3CCOCC3)cc(Cl)c3cccnc23)c1
2. O=C(Nc1nc(-c2ccccn2)cs1)c1ccc(F)c(S(=O)(=O)N2CCOCC2)c1
3. O=C(COc1ccccc1)Nc1nnc(-c2ccco2)o1
4. O=C(CSc1cccc2cccnc12)Nc1ccccc1F
5. Cc1cccc(S(=O)(=O)N[C@@H]2CC[C@@H](CCn3cc(-c4ccccn4)nn3)O[C@@H]2CO)c1
6. CCOC(=O)Cc1nnc(NC(=O)c2ncn[nH]2)s1

### Response
1. 10.9 µM
2. 2.76 µM
3. 36.6 µM
4. 19.5 µM
5. 26.7 µM
6. 23.2 µM
